- MEASUREMENT_TARGET: human Fc (human)
- EXPERIMENTAL_PROTOCOL: ELISA, negative control
Answer each item with its documented optical density.
One number for each entry, in OD.

# optical density (binder: 375_E06 (antibody, V domains shown) VH: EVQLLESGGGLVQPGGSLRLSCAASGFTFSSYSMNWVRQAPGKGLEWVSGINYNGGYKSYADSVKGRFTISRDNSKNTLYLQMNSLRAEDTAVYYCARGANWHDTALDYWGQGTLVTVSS VL: DIQMTQSPSSLSASVGDRVTITCRASQSILSYLNWYQQKPGKAPKLVIYAATSRASGVPSRFSGSGSGTDFTLTISSLQPEDFATYYCQQSYDSPLTFGGGTKVEIK ) is 0.188

More entries:
# optical density (binder: 373_G06 (antibody, V domains shown) VH: EVQLLESGGGLVQPGGSLRLSCAASGFTFSSYGMHWVRQAPGKGLEWVASINYNSGYTGYADSVKGRFTISRDNSKNTLYLQMNSLRAEDTAVYYCARAATWHDTHLDYWGQGTLVTVSS VL: DIQMTQSPSSLSASVGDRVTITCRASQSILSYVNWYQQKPGKAPKLLIYAATSLASGVPSRFSGSGSGTDFTLTISSLQPEDFATYYCQQSYNLPLTFGGGTKVEIK ) is 0.196
